- study system: D2 receptor (Homo sapiens (Human))
- Sequence (P14416 whole entry): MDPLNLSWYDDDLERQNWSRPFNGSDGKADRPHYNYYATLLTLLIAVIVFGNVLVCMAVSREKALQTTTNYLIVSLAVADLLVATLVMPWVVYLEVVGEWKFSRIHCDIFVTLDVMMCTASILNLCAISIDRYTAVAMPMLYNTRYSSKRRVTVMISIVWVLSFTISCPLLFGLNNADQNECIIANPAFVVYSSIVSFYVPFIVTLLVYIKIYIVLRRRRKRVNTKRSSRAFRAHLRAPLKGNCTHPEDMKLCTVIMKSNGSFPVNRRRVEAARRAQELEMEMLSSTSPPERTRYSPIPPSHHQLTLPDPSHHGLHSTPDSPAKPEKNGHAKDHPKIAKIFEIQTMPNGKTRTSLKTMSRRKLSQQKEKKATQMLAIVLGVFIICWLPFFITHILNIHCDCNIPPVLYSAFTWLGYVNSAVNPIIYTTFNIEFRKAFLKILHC
- protocol description: Radioligand binding ([3H]-spiperone) to cloned D2 receptor expressed in HEK-293 EBNA cells
- condition summary: HEK293 EBNA membranes, 0.7 nM [3H]-spiperone
The following compounds are shown together with reported pKi values.
Give only the number. pKi is defined as minus log10 of concentration in molar units.

compound: O=C(CC(F)(F)F)N[C@H]1CC[C@H](CCN2CCN(c3cccc4c3OCO4)CC2)CC1 [Example 16]
pKi: 7.04

compound: O=C(C[C@@H]1CCCOC1)N[C@H]1CC[C@H](CCN2CCN(c3cccc4c3OCO4)CC2)CC1 (single isomer, unassigned) [Example 32]
pKi: 6.86

compound: O=S(=O)(CC(F)(F)F)N[C@H]1CC[C@H](CCN2CCN(c3cccc4c3OCO4)CC2)CC1 [Example 66]
pKi: 7.13

# evaluate next
# input In one line, give reported pKi of the entry O=C(Nc1ccc(Cl)cc1)N[C@H]1CC[C@H](CCN2CCN(c3cccc4c3OCO4)CC2)CC1 [Example 75] .
# output 6.80
